Where these numbers come from: ChEMBL document CHEMBL4680287

Could you please report measured bioavailability for the items listed next?
# protocol text: Oral bioavailability in mouse
# Type: ADME, organism-based
# cond: in vivo
Please reply with the bare figure in % and do not write the unit itself.

Q: For the compound "CC(C)[C@@H](C)[C@@]1(C)CC[C@]2(C)[C@H]3CC[C@@H]4[C@@]5(COC[C@@]4(C)[C@@H](OC[C@](C)(N)C(C)C)[C@H](n4ncnc4-c4ccncc4F)C5)C3=CC[C@@]2(C)[C@@H]1C(=O)O" , report bioavailability.
A: 26

Q: For the compound "CC(C)[C@@H](C)[C@@]1(C)CC[C@]2(C)[C@H]3CC[C@@H]4[C@@]5(COC[C@@]4(C)[C@@H](OC[C@](C)(N)C(C)(C)C)[C@H](n4ncnc4-c4ccncc4)C5)C3=CC[C@@]2(C)[C@@H]1C(=O)O" , report bioavailability.
A: 34

Q: For the compound "CC(C)[C@@H](C)[C@@]1(C)CC[C@]2(C)[C@H]3CC[C@@H]4[C@@]5(COC[C@@]4(C)[C@@H](OC[C@@]4(N)CCOCC4(C)C)[C@H](n4ncnc4-c4ccncc4)C5)C3=CC[C@@]2(C)[C@@H]1C(=O)O" , report bioavailability.
A: 25

Q: For the compound "CC(C)[C@@H](C)[C@@]1(C)CC[C@]2(C)[C@H]3CC[C@@H]4[C@@]5(COC[C@@]4(C)[C@@H](OCC4(N)CCOCC4)[C@H](n4ncnc4-c4ccncc4)C5)C3=CC[C@@]2(C)[C@@H]1C(=O)O" , report bioavailability.
A: 13
